Cited source: PubChem BioAssay AID256

Catalogue of T/C readings, one per entry.
test system: CD2F1 mice, L1210 leukemia ip, survival T/C; test: NCI In Vivo Anticancer Drug Screen. Data for tumor model L1210 Leukemia (intraperitoneal) in CD2F1 (CDF1) mice; conditions: endpoint: mean survival time; dose: 100.0 mg/kg/injection; schedule: Q01DX009 (ip); vehicle: saline with Tween-80; higher = longer survival
Inconclusive results and toxic doses are left out.

CC(=O)Oc1ccc(N2C(=O)C=CC2=O)cc1 (tested in a mixture with another compound); 95 % of control
OCc1c(Cl)c(Cl)c(CO)c(Cl)c1Cl; 95 % of control
NC(N)=NC(N)=Nc1ccc(Cl)cc1; 104 % of control
CC(C)(C)Sc1cccnc1 (tested in a mixture with another compound); 92 % of control
O=C1CC(c2ccc([N+](=O)[O-])cc2)=Nc2ccccc2N1; 102 % of control
Cc1[nH]c(=S)[nH]c(=O)c1CC(C)O (stereo unspecified); 97 % of control
Cc1ccc(NC(=O)c2ccccc2Cl)c(C)c1; 110 % of control
COc1cc(C2C3CN(C4CCCCC4)C(=O)C3NN2C(C)=O)ccc1OC(C)=O (stereo unspecified); 93 % of control
Cc1ccc(S(=O)(=O)/C=C(\C=C/c2ccccc2)c2ccccc2)cc1; 103 % of control
C=CCCCCCCCCC(=O)N(CC#N)CC(C)C; 104 % of control

// moving on: another record for T/C
Input: Given the entry `CC(=O)Nc1ccccc1C(=O)C(=O)Nc1ccccc1C(=O)NN` , report its measured T/C.
Output: 91 % of control

###

tested on: CD2F1 mice, L1210 leukemia ip, survival T/C; assay: NCI In Vivo Anticancer Drug Screen. Data for tumor model L1210 Leukemia (intraperitoneal) in CD2F1 (CDF1) mice; details: endpoint: mean survival time; dose: 200.0 mg/kg/injection; schedule: Q04DX003 (ip); vehicle: saline with Tween-80; higher = longer survival
Toxic doses and inconclusive results are not listed.
measurementType: T/C

Below are worked cases with known answers.
C/C(=N\NC(N)=O)C(F)(F)F; 108 % of control
CCCCCC#CC(=O)OC; 96 % of control
Nc1ncccc1[N+](=O)[O-]; 102 % of control
COc1cc2c(cc1OC)C1CCN3C(=O)CCC3N1CC2 (stereo not given); 102 % of control
O=C1C(Br)CCC1C(O)(C(F)(F)F)C(F)(F)F (stereo not given); 91 % of control

Input: Which T/C value is on record for `OC(c1ccccc1)(c1ccccc1)c1nc2ccccc2o1` ?
Output: 91 % of control

Input: Next up: `CCCCOc1ccc(C=Nc2ccc(CC)cc2)cc1`
Output: 97 % of control

Input: Now the compound `O=C(COc1ccc(Cl)cc1Cl)Nc1cc[n+](Cc2ccc(S(=O)(=O)F)cc2)cc1`
Output: 98 % of control

Input: # repeat for CC1CCC(=O)C2(C)CC3OC(=O)C(C)C3C=C12 (stereo not given)
Output: 93 % of control

Input: Now the same for `Cn1cnc2c(SCc3ccccc3)ncnc21`
Output: 102 % of control

###

tested on: CD2F1 mice, L1210 leukemia ip, survival T/C; test: NCI In Vivo Anticancer Drug Screen. Data for tumor model L1210 Leukemia (intraperitoneal) in CD2F1 (CDF1) mice; conditions: endpoint: mean survival time; dose: 400.0 mg/kg/injection; schedule: Q01DX009 (ip); vehicle: saline; higher = longer survival
Toxic doses and inconclusive results are not listed.
measurementType: T/C

Consider the worked cases shown below.
O=P(CCCCl)(OCCCCl)OCCCCl; 100 % of control
CC1=CC(=O)OC(C)(C)C1; 114 % of control
CS(=O)(=O)/C=C(\I)c1ccccc1; 95 % of control
CCN(CC)CCNc1nc(-c2cc(C(F)(F)F)cc(C(F)(F)F)c2)nc(C(Cl)(Cl)Cl)n1; 93 % of control
NC(N)=NC(N)=Nc1ccc(C(=O)O)c(O)c1; 95 % of control
CC1CC(=O)OC2CC(C)(C)CC(=O)C12 (stereo not drawn); 104 % of control

Input: Quick one: T/C for CC(=O)NCC(O)C(O)C(O)C(O)CO (stereo not drawn) ?
Output: 110 % of control

###

Some compounds, each annotated with its measured T/C.
tested on: CD2F1 mice, L1210 leukemia ip, survival T/C; experiment: NCI In Vivo Anticancer Drug Screen. Data for tumor model L1210 Leukemia (intraperitoneal) in CD2F1 (CDF1) mice; conditions: endpoint: mean survival time; dose: 50.0 mg/kg/injection; schedule: Q01DX001 (ip); vehicle: saline with Tween-80; higher = longer survival
Toxic doses and inconclusive results are not listed.

Here is how some compounds turned out for T/C.
CC(C)N(C=C(C#N)C#N)C(C)C; 107 % of control
O=C(/C=C/C(=O)c1ccccc1)c1ccccc1; 89 % of control
Nc1ccc(OC(=O)c2ccccc2)cc1; 90 % of control
Nc1nc(N)c(CCCCc2ccc(NC(=O)c3cccc(S(=O)(=O)F)c3)cc2)c(N)n1; 96 % of control
OC(c1ccccc1)(c1ccccc1)C1c2ccccc2-c2[nH]c3ccccc3c21 (configuration not stated); 93 % of control
CN(C)C1C(CO)C(CO)C1(C)C (configuration not stated); 98 % of control

Input: Which T/C reading was recorded for the compound `O=C(OC1=CCc2ccccc21)c1ccc([N+](=O)[O-])cc1` ?
Output: 101 % of control

###

// reported T/C per item
test system: CD2F1 mice, L1210 leukemia ip, survival T/C; experiment: NCI In Vivo Anticancer Drug Screen. Data for tumor model L1210 Leukemia (intraperitoneal) in CD2F1 (CDF1) mice; details: endpoint: mean survival time; dose: 200.0 mg/kg/injection; schedule: Q01DX001 (ip); vehicle: carboxymethylcellulose (CMC); higher = longer survival
Inconclusive results and toxic doses are left out.

CN(C)c1ccc(/C=N/Nc2ncnc(Cl)c2N)cc1; 91 % of control

Input: Field request: T/C | item: Cc1cn(C2CCC(CO)C2)c(=O)[nH]c1=O (centres undefined)
Output: 95 % of control

Input: What do we get for `CNC(=O)n1ncnc1N` ?
Output: 93 % of control

Input: Moving on to the next molecule: `CCOC(=O)Nc1cnc2nc[nH]c2c1N(C)C`
Output: 104 % of control

###

Tested on: CD2F1 mice, L1210 leukemia ip, survival T/C
Assay: NCI In Vivo Anticancer Drug Screen. Data for tumor model L1210 Leukemia (intraperitoneal) in CD2F1 (CDF1) mice
Settings: endpoint: mean survival time; dose: 6.25 mg/kg/injection; schedule: Q04DX003 (ip); vehicle: distilled water + Tween-80; higher = longer survival
Method: The antitumor activity of compounds was measured in mice bearing transplantable tumors. Survival or tumor size were measured and the results are expressed as the measurement made in the treated group (T) divided by the measurement made in the vehicle treated control group (C). The tumor model used in this assay is L1210 Leukemia (intraperitoneal) in CD2F1 (CDF1) mice
Inconclusive results and toxic doses are left out.
Below, each of the molecules is paired with its reported T/C value.

The cases that follow already have their T/C on record.
CC(=O)C(C(C)=O)C(=[C-]C(F)(F)F)C(F)(F)F.CC(=O)C(C(C)=O)C(=[C-]C(F)(F)F)C(F)(F)F.[Pd+2]; 96 % of control
[Cl][Pt+2][Cl].[NH-]c1cc(F)ccc1F.[NH-]c1cc(F)ccc1F; 110 % of control
CC(C)=CCC(OC(=O)C=C(C)C)c1cc(O)c2c(O)ccc(O)c2c1O.[Pt] (centres undefined); 101 % of control

Now for another entry.
Input: So what does the record say about T/C for `CC[N-]c1nncs1.CC[N-]c1nncs1.CC[N-]c1nncs1.CC[N-]c1nncs1.[Cl][Rh][Cl]` ?
Output: 98 % of control

###

Each entry below lists one item and its recorded T/C value.
system: CD2F1 mice, L1210 leukemia ip, survival T/C; assay: NCI In Vivo Anticancer Drug Screen. Data for tumor model L1210 Leukemia (intraperitoneal) in CD2F1 (CDF1) mice; settings: endpoint: mean survival time; dose: 200.0 mg/kg/injection; schedule: Q01DX001 (ip); vehicle: saline; higher = longer survival
Inconclusive results and toxic doses are left out.

COc1ccccc1OCC1CO1 (centres undefined); 102 % of control
O=P(OCCCCCl)(OCCCCCl)C(Cl)Cl; 100 % of control
O=C(CCc1ccc(O)cc1)c1c(O)cc(O)cc1OC1OC(CO)C(O)C(O)C1O (centres undefined); 98 % of control

Please look at the following compound next.
Input: What measured T/C goes with CCCCC(CC)CCC(OC(=O)CSC#N)C(C)CC (centres undefined) ?
Output: 91 % of control

###

Entries and their T/C
system: CD2F1 mice, L1210 leukemia ip, survival T/C; experiment: NCI In Vivo Anticancer Drug Screen. Data for tumor model L1210 Leukemia (intraperitoneal) in CD2F1 (CDF1) mice; conditions: endpoint: mean survival time; dose: 100.0 mg/kg/injection; schedule: Q01DX009 (ip); vehicle: saline with Tween-80; higher = longer survival
Inconclusive results and toxic doses are left out.

Input: Item under review: `Cc1cc(O)c(C(C)C)cc1N=O` . Reported T/C?
Output: 94 % of control

Input: Request: `Cc1cccc(NC(=O)c2cccc(Cl)c2)c1C`
Output: 91 % of control

Input: Let us now turn to `c1ccc2c(c1)OP(OP1Oc3ccccc3O1)O2`
Output: 107 % of control

Input: Same read-out for `N=Cc1c(O)n(C2CCCCC2)c(=O)[nH]c1=O` ?
Output: 98 % of control

Input: Here is the next compound: CC(=O)C(C(C)=O)C1C=CCC1 (configuration not stated)
Output: 107 % of control

Input: Further, for `CC(=O)c1cc2c(cc1C(C)C)CC[C@H]1[C@](C)(C#N)CCC[C@]21C` ?
Output: 98 % of control

Input: Would you mind doing `CN(CCO)c1c(Cl)c(=O)oc2ccc(Cl)cc12` as well?
Output: 97 % of control
